# System: 855422-203-R-J1-PDC spheroids with HUVEC/MSC, viability
# method_description: Anticancer human tumor 855422-203-R-J1-PDC patient-derived bladder carcinoma cell line growth inhibition [PI3K]
# condition_parameters: second compound 1 µM; first compound 0.00316 µM; stronger effect = lower value
viability, T/C values by entry

Past entries and their recorded results:
>>> reported_value("CC(=O)c1c(C)c2cnc(Nc3ccc(N4CCNCC4)cn3)nc2n(C2CCCC2)c1=O + Cc1nc(NC(=O)N2CCCC2C(N)=O)sc1-c1ccnc(C(C)(C)C(F)(F)F)c1")
"72.8%"
>>> reported_value("CC(C)n1nc(-c2ccc3oc(N)nc3c2)c2c(N)ncnc21 + CC(Nc1ncnc2nc[nH]c12)c1cc2cccc(Cl)c2c(=O)n1-c1ccccc1")
"100%"

Incoming: # value lookup — system 855422-203-R-J1-PDC spheroids with HUVEC/MSC, viability, readout viability, T/C, item CCN1CCN(Cc2ccc(Nc3ncc(F)c(-c4cc(F)c5nc(C)n(C(C)C)c5c4)n3)nc2)CC1 + CC(Nc1ncnc2nc[nH]c12)c1cc2cccc(Cl)c2c(=O)n1-c1ccccc1
Outgoing: 97.5%

Incoming: Would you kindly repeat that for CC(=O)c1c(C)c2cnc(Nc3ccc(N4CCNCC4)cn3)nc2n(C2CCCC2)c1=O + CC(Nc1ccc2c(c1)OCCn1cc(N3C(=O)OCC3C(F)F)nc1-2)C(N)=O ?
Outgoing: 31.9%

Incoming: Would you kindly repeat that for CC(=O)c1c(C)c2cnc(Nc3ccc(N4CCNCC4)cn3)nc2n(C2CCCC2)c1=O + COc1c(OCCCN2CCOCC2)ccc2c3n(c(=NC(=O)c4cnc(N)nc4)nc12)CCN3 ?
Outgoing: 3.28%

Incoming: Would you kindly repeat that for CC(=O)c1c(C)c2cnc(Nc3ccc(N4CCNCC4)cn3)nc2n(C2CCCC2)c1=O + CC(Nc1ncnc2nc[nH]c12)c1cc2cccc(Cl)c2c(=O)n1-c1ccccc1 ?
Outgoing: 102%

----------
viability, T/C values by entry
# Tested on: 855422-203-R-J1-PDC spheroids with HUVEC/MSC, viability
# method_description: Anticancer human tumor 855422-203-R-J1-PDC cell line growth inhibition [PI3K];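 also: agents incubated with spheroids for one week before read-out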;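 as to viability, T/C: 100% = DMSO vehicle-treated control wells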
# condition_parameters: second compound 0.316 µM; first compound 0.316 µM; stronger effect = lower value
Give just the number in %; leave the unit off.

Past entries and their recorded results:
>>> reported_value("CCN1CCN(Cc2ccc(Nc3ncc(F)c(-c4cc(F)c5nc(C)n(C(C)C)c5c4)n3)nc2)CC1 + COc1c(OCCCN2CCOCC2)ccc2c3n(c(=NC(=O)c4cnc(N)nc4)nc12)CCN3")
8.06
>>> reported_value("CC1(C)CCC(CN2CCN(c3ccc(C(=O)NS(=O)(=O)c4ccc(NCC5CCOCC5)c([N+](=O)[O-])c4)c(Oc4cnc5[nH]ccc5c4)c3)CC2)=C(c2ccc(Cl)cc2)C1 + COc1c(OCCCN2CCOCC2)ccc2c3n(c(=NC(=O)c4cnc(N)nc4)nc12)CCN3")
12.7
>>> reported_value("C=CC(=O)N1CCN(c2nc(=O)n(-c3c(C)ccnc3C(C)C)c3nc(-c4c(O)cccc4F)c(F)cc23)C(C)C1 (stereo not given) + CC(Nc1ncnc2nc[nH]c12)c1cc2cccc(Cl)c2c(=O)n1-c1ccccc1")
98.3
>>> reported_value("CNC(=O)c1ccc(N2C(=S)N(c3ccc(C#N)c(C(F)(F)F)c3)C(=O)C2(C)C)cc1F + COc1c(OCCCN2CCOCC2)ccc2c3n(c(=NC(=O)c4cnc(N)nc4)nc12)CCN3")
8.16

Incoming: # value lookup — system 855422-203-R-J1-PDC spheroids with HUVEC/MSC, viability, readout viability, T/C, item C#Cc1c(F)ccc2cc(O)cc(-c3ncc4c(N5CC6CCC(C5)N6)nc(OCC56CCCN5CC(F)C6)nc4c3F)c12 (stereo not given) + CC(Nc1ncnc2nc[nH]c12)c1cc2cccc(Cl)c2c(=O)n1-c1ccccc1
Outgoing: 96.6

----------
# Tested on: 855422-203-R-J1-PDC spheroids with HUVEC/MSC, viability
# method_description: Anticancer human tumor 855422-203-R-J1-PDC cell line growth inhibition [PI3K];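 also: agents incubated with spheroids for one week before read-out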
# condition_parameters: curve of first compound; second compound 0.01 µM
IC50 values by entry

Past entries and their recorded results:
>>> reported_value("CC1(C)CCC(Nc2ncc(C(F)(F)F)c(-c3c[nH]c4c(P(C)(C)=O)c(C#N)ccc34)n2)CN1 (stereo unspecified) + CC(Nc1ccc2c(c1)OCCn1cc(N3C(=O)OCC3C(F)F)nc1-2)C(N)=O")
"< 31.6 nM"
>>> reported_value("CC(Cn1ccc(-c2ccc(C#N)c(Cl)c2)n1)NC(=O)c1cc(C(C)O)[nH]n1 (stereo unspecified) + CC(Nc1ccc2c(c1)OCCn1cc(N3C(=O)OCC3C(F)F)nc1-2)C(N)=O")
"> 10000 nM"
>>> reported_value("C[C@@H](NC(=O)c1ncnc(N)c1Cl)c1ncc(C(=O)Nc2cc(C(F)(F)F)c(Cl)cn2)s1 + COc1c(OCCCN2CCOCC2)ccc2c3n(c(=NC(=O)c4cnc(N)nc4)nc12)CCN3")
"> 10000 nM"
>>> reported_value("CC1(C)CCC(Nc2ncc(C(F)(F)F)c(-c3c[nH]c4c(P(C)(C)=O)c(C#N)ccc34)n2)CN1 (stereo unspecified) + COc1c(OCCCN2CCOCC2)ccc2c3n(c(=NC(=O)c4cnc(N)nc4)nc12)CCN3")
"< 31.6 nM"
>>> reported_value("Cn1cnc2c(F)c(Nc3ccc(Br)cc3Cl)c(C(=O)NOCCO)cc21 + CC(Nc1ccc2c(c1)OCCn1cc(N3C(=O)OCC3C(F)F)nc1-2)C(N)=O")
"2150 nM"

Incoming: # value lookup — system 855422-203-R-J1-PDC spheroids with HUVEC/MSC, viability, readout IC50, item C#Cc1c(F)ccc2cc(O)cc(-c3ncc4c(N5CC6CCC(C5)N6)nc(OCC56CCCN5CC(F)C6)nc4c3F)c12 (stereo unspecified) + COc1c(OCCCN2CCOCC2)ccc2c3n(c(=NC(=O)c4cnc(N)nc4)nc12)CCN3
Outgoing: > 10000 nM

Incoming: Would you kindly repeat that for CC(C)n1nc(-c2ccc3oc(N)nc3c2)c2c(N)ncnc21 + COc1c(OCCCN2CCOCC2)ccc2c3n(c(=NC(=O)c4cnc(N)nc4)nc12)CCN3 ?
Outgoing: 31.3 nM

Incoming: Would you kindly repeat that for CC(Cn1ccc(-c2ccc(C#N)c(Cl)c2)n1)NC(=O)c1cc(C(C)O)[nH]n1 (stereo unspecified) + COc1c(OCCCN2CCOCC2)ccc2c3n(c(=NC(=O)c4cnc(N)nc4)nc12)CCN3 ?
Outgoing: > 10000 nM

Incoming: Would you kindly repeat that for Cn1ncnc1[C@H]1c2n[nH]c(=O)c3cc(F)cc(c23)N[C@@H]1c1ccc(F)cc1 + COc1c(OCCCN2CCOCC2)ccc2c3n(c(=NC(=O)c4cnc(N)nc4)nc12)CCN3 ?
Outgoing: > 100 nM

Incoming: Would you kindly repeat that for CCCS(=O)(=O)Nc1ccc(F)c(C(=O)c2c[nH]c3ncc(-c4ccc(Cl)cc4)cc23)c1F + COc1c(OCCCN2CCOCC2)ccc2c3n(c(=NC(=O)c4cnc(N)nc4)nc12)CCN3 ?
Outgoing: 4840 nM

Incoming: Would you kindly repeat that for Cn1cnc2c(F)c(Nc3ccc(Br)cc3Cl)c(C(=O)NOCCO)cc21 + COc1c(OCCCN2CCOCC2)ccc2c3n(c(=NC(=O)c4cnc(N)nc4)nc12)CCN3 ?
Outgoing: 1570 nM

----------
# Tested on: 855422-203-R-J1-PDC spheroids with HUVEC/MSC, viability
# method_description: Anticancer human tumor 855422-203-R-J1-PDC cell line growth inhibition [PI3K];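 also: agents incubated with spheroids for one week before read-out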;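 as to viability, T/C: 100% = DMSO vehicle-treated control wells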
# condition_parameters: second compound 0.01 µM; first compound 0.316 µM; stronger effect = lower value
viability, T/C values by entry
Give just the number in %; leave the unit off.

Past entries and their recorded results:
>>> reported_value("CC(Cn1ccc(-c2ccc(C#N)c(Cl)c2)n1)NC(=O)c1cc(C(C)O)[nH]n1 (stereo not drawn) + COc1c(OCCCN2CCOCC2)ccc2c3n(c(=NC(=O)c4cnc(N)nc4)nc12)CCN3")
87.4
>>> reported_value("C=CC(=O)N1CCN(c2nc(=O)n(-c3c(C)ccnc3C(C)C)c3nc(-c4c(O)cccc4F)c(F)cc23)C(C)C1 (stereo not drawn) + COc1c(OCCCN2CCOCC2)ccc2c3n(c(=NC(=O)c4cnc(N)nc4)nc12)CCN3")
98

Incoming: Look up viability, T/C for this molecule: C#Cc1c(F)ccc2cc(O)cc(-c3ncc4c(N5CC6CCC(C5)N6)nc(OCC56CCCN5CC(F)C6)nc4c3F)c12 (stereo not drawn) + CC(Nc1ccc2c(c1)OCCn1cc(N3C(=O)OCC3C(F)F)nc1-2)C(N)=O
Outgoing: 96.6

----------
# Tested on: 855422-203-R-J1-PDC spheroids with HUVEC/MSC, viability
# method_description: Anticancer human tumor 855422-203-R-J1-PDC cell line growth inhibition [PI3K];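 also: agents incubated with spheroids for one week before read-out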
# condition_parameters: curve of first compound; second compound 0.316 µM
pIC50: −log10 of the molar value.
pIC50 values by entry

Past entries and their recorded results:
>>> reported_value("Cn1ncnc1[C@H]1c2n[nH]c(=O)c3cc(F)cc(c23)N[C@@H]1c1ccc(F)cc1 + CC(Nc1ncnc2nc[nH]c12)c1cc2cccc(Cl)c2c(=O)n1-c1ccccc1")
"< 7.00"
>>> reported_value("CCCS(=O)(=O)Nc1ccc(F)c(C(=O)c2c[nH]c3ncc(-c4ccc(Cl)cc4)cc23)c1F + COc1c(OCCCN2CCOCC2)ccc2c3n(c(=NC(=O)c4cnc(N)nc4)nc12)CCN3")
"> 7.50"
>>> reported_value("CCCS(=O)(=O)Nc1ccc(F)c(C(=O)c2c[nH]c3ncc(-c4ccc(Cl)cc4)cc23)c1F + CC(Nc1ncnc2nc[nH]c12)c1cc2cccc(Cl)c2c(=O)n1-c1ccccc1")
5.36
>>> reported_value("CC(Cn1ccc(-c2ccc(C#N)c(Cl)c2)n1)NC(=O)c1cc(C(C)O)[nH]n1 (stereo not drawn) + CC(Nc1ncnc2nc[nH]c12)c1cc2cccc(Cl)c2c(=O)n1-c1ccccc1")
"< 5.00"
>>> reported_value("CC(=O)c1c(C)c2cnc(Nc3ccc(N4CCNCC4)cn3)nc2n(C2CCCC2)c1=O + CC(Nc1ncnc2nc[nH]c12)c1cc2cccc(Cl)c2c(=O)n1-c1ccccc1")
"< 7.00"

Incoming: Look up pIC50 for this molecule: CC(C)n1nc(-c2ccc3oc(N)nc3c2)c2c(N)ncnc21 + COc1c(OCCCN2CCOCC2)ccc2c3n(c(=NC(=O)c4cnc(N)nc4)nc12)CCN3
Outgoing: > 9.50

Incoming: Would you kindly repeat that for CCN1CCN(Cc2ccc(Nc3ncc(F)c(-c4cc(F)c5nc(C)n(C(C)C)c5c4)n3)nc2)CC1 + Cc1nc(NC(=O)N2CCCC2C(N)=O)sc1-c1ccnc(C(C)(C)C(F)(F)F)c1 ?
Outgoing: 6.85
